These data points were gathered from the supplement of paper PMC6555819.

# System: LXRb:RXRa (NR concentration 270 nM, RXRa partner concentration 90 nM)
# Experimental protocol: PBM binding z-score (relative to random genomic background probes); higher = stronger binding; sequences stand for … in GC…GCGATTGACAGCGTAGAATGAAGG
Quantity: PBM binding z-score
Give a plain numeric answer without units written out.

QUERY: Report PBM binding z-score for TTTATTAGTTGAAGGGCAACCGACGAGTCCGTTT please.
RESULT: 0.739

QUERY: Report PBM binding z-score for TAGCCTAGGGCAGATCGGGCCAGTATACGCTATA please.
RESULT: -0.757

QUERY: Report PBM binding z-score for CTCGAAAGGTCGGTTTAGGTGAGTATACGGATAA please.
RESULT: 1.7

QUERY: Report PBM binding z-score for GCTATGAGTTGAAAGGGCAACCGAATGATTCTCG please.
RESULT: 1.24

QUERY: Report PBM binding z-score for TCTGCTAGGTCAGTTGGTCGGCTAACGAGCTGCC please.
RESULT: 0.189

QUERY: Report PBM binding z-score for ATCTCTAGGTAACACTCAGTTCAGTGAAGAACGC please.
RESULT: 0.889

QUERY: Report PBM binding z-score for CCTGCTAGGTCATGGTCGGCTAATCTACAGTATG please.
RESULT: 1.91

QUERY: Report PBM binding z-score for TAGCCTAGGTCATGCGGGCCAGTATTGTGTCGGC please.
RESULT: 1.71

QUERY: Report PBM binding z-score for ACTATTAGTTGACTTAGGGCGACCGATACGACGC please.
RESULT: -0.0198

QUERY: Report PBM binding z-score for TAGCCTAGGTCATTCAGGGGCCAGTGTAGAAAGC please.
RESULT: 3.06

QUERY: Report PBM binding z-score for ACTCAAAGTTCATCTAGGTAACGTAAGATATGCT please.
RESULT: 4.18

QUERY: Report PBM binding z-score for GCAGACAGGTGAAACGCTGGTAACTCAGGGTGGC please.
RESULT: -0.149

QUERY: Report PBM binding z-score for CCTTACGGGTCACTCCAGGTTAGAGCATCGGAGT please.
RESULT: 4.42

QUERY: Report PBM binding z-score for CGTCCAAGGTCAAGGCTAGGTCAGTGAAAGCATT please.
RESULT: 4.11

QUERY: Report PBM binding z-score for ATATGTAGGTTACATCCGGGTCATGCAGGCTATG please.
RESULT: 2.38

QUERY: Report PBM binding z-score for AGTCAAAGTTCATATAGGTAACGTAAGATATGCT please.
RESULT: 3.66

QUERY: Report PBM binding z-score for CCAGCTAGGTCAATGGTCAGCTAAAGCAGCTCGC please.
RESULT: 1.27

QUERY: Report PBM binding z-score for CTCGAAAGGTCGGTTGTGGTGAGTATACGGATAA please.
RESULT: 1.67

QUERY: Report PBM binding z-score for CCTGCTAGGTCAATGGTCCGCTAAAGCAGCTCGC please.
RESULT: 1.19

QUERY: Report PBM binding z-score for CGTCCAAGGTCAGCAGGTTAGTGAAAGCGACGTG please.
RESULT: 2.36

QUERY: Report PBM binding z-score for TCTATTAGTTGAAGGGCAACCTACGAGTCCGTTT please.
RESULT: 0.789

QUERY: Report PBM binding z-score for CCTGCTAGGTCAATGGTCAGCTAGAGCAGCTCGC please.
RESULT: 1.03

QUERY: Report PBM binding z-score for CGTCCAAGGTCAGAGAGGTCAGTAAATGCCGAGT please.
RESULT: 4.55

QUERY: Report PBM binding z-score for TCTGCTAGGTCATTTGGTCAGCTAACGAGCTGCC please.
RESULT: 2.03

QUERY: Report PBM binding z-score for GCTTACGGGTCAATGGTTATAGCATGAATAGAAT please.
RESULT: 2.89

QUERY: Report PBM binding z-score for CCTCGGAGGACAACAGAAGGTCAGAGCTGCCAGA please.
RESULT: 1.14

QUERY: Report PBM binding z-score for GCATATAGGTAATACAAGGTGCAAGTCCGATTGT please.
RESULT: -0.333

QUERY: Report PBM binding z-score for TCGAGTAGGTTAGGCGCATTCAGAATGGCGTCGA please.
RESULT: -0.547

QUERY: Report PBM binding z-score for AATACAGGGTCACTAGGCAAGAGTAGGTACGAAT please.
RESULT: 3.82

QUERY: Report PBM binding z-score for GCTGCTTGGTCAGGTTGGTCAGCTAACGGGTACG please.
RESULT: -0.457

QUERY: Report PBM binding z-score for TCAGACCGGTGAAGGTAACTCAGGTACGCAGTCG please.
RESULT: 0.535

QUERY: Report PBM binding z-score for CTTCCAAGGTCAAAGGTCAGTGAAGAGATGACGG please.
RESULT: 6.74

QUERY: Report PBM binding z-score for TCGAGTAGGTTAGTCGGGGAATTCAGCCAACATA please.
RESULT: -0.065

QUERY: Report PBM binding z-score for TCAGACACGTGAAGGTAACTCAGGTACGCAGTCG please.
RESULT: 0.638

QUERY: Report PBM binding z-score for TCAAGTTGGTCAAAGGTCACACACTCGAAATGCG please.
RESULT: 5.56

QUERY: Report PBM binding z-score for GGAACGAGGGCAACTTGATAGCAGAGTTTGATGG please.
RESULT: 0.468

QUERY: Report PBM binding z-score for TTACCAAGGTGAGCTGAGGTCGTTCATCCAACTC please.
RESULT: 0.862

QUERY: Report PBM binding z-score for TCGTGTAGATCAAGCAGGTTAAGAAAGCCTGAGT please.
RESULT: 0.143

QUERY: Report PBM binding z-score for GGAACGACGGCATTCGAGTTGATAGCATGGCGAT please.
RESULT: -0.948

QUERY: Report PBM binding z-score for ATCGAAAGGTCGAGGTGAGTATAGAGAAAGGGAA please.
RESULT: 2.77

QUERY: Report PBM binding z-score for CCTTACGGGTCACTGGCAGGTTATAGCATTTGGA please.
RESULT: 3.52

QUERY: Report PBM binding z-score for ATCTCTAGGTAAAACTCAGTTCAGTGAAGAACGC please.
RESULT: 0.542

QUERY: Report PBM binding z-score for CTCGAAAGGTCGGTTGAGGGGAGTATACGGATAA please.
RESULT: 1.35

QUERY: Report PBM binding z-score for TCTTATAGGTAATACAGGTGAAAGTCGGCATCTA please.
RESULT: 1.17

QUERY: Report PBM binding z-score for GCTGCTAGGTCAGGTTGGTTAGCTAACGGGTACG please.
RESULT: 0.322

QUERY: Report PBM binding z-score for ACTAGTTGGTCAGCTGAGGTCACAAACAATTCGG please.
RESULT: 3.43

QUERY: Report PBM binding z-score for TGAATGAGGTTAAAGATCAGGGACCGTGGCGTCG please.
RESULT: 1.45

QUERY: Report PBM binding z-score for ACTAGCCGGCCAAGTTTGGGTCACTCAAACAAAG please.
RESULT: 0.789

QUERY: Report PBM binding z-score for CTCGAACGGTCGTGCTCAGGTGAGTATACCAAAC please.
RESULT: -0.274

QUERY: Report PBM binding z-score for ACTAGTTGGTCAGCTGAGGTCGCACACAATTCGG please.
RESULT: 1.1

QUERY: Report PBM binding z-score for TCATATAGGTTAACAGGTGAAAGTCCGTAAGTTA please.
RESULT: 1.72
